Readings of IC50 for the listed molecules
Target: recombinant human ARG1 (Homo sapiens, UniProt P05089)
Sequence (P05089 1-322): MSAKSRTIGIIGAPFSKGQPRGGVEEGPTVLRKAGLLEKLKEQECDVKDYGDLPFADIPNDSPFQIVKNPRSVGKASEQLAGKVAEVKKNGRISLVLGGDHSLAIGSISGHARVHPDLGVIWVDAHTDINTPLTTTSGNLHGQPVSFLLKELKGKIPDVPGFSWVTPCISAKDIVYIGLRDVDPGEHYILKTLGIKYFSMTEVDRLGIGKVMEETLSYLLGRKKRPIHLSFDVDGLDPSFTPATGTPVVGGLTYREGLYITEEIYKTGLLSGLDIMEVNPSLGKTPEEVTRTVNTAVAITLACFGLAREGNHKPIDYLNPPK
Test: Arginase coupled enzymatic assay using recombinant human ARG1
Conditions: 2 nM ARG1, 0.8 mM L-Arginine, 10 mM sodium phosphate pH 7.4, 0.1 mM MnCl2, 37° C., absorption at 570 nm; read-out: hARG1 potency (IC50)

Example cases with answers are listed next.
>>> print(df.to_string())
                        structure_as_smiles  assay_metric          result
0  CN[C@@]1(C(=O)O)c2ccc(CN)cc2C[C@@H]1CCCB(O)O          IC50        < 100 nM
1  CN[C@@]1(C(=O)O)c2cc(Cc3ccccn3)c(Cl)cc2C[C@@H]1CCCB(O)O          IC50  100 to 1000 nM

For the molecule shown here, CN[C@@]1(C(=O)O)c2cc(CN3CC[C@@H](F)C3)c(F)cc2C[C@@H]1CCCB(O)O , give the reported IC50.
< 100 nM

Then CN[C@@]1(C(=O)O)c2cc([C@H](C)N)c(OCC(F)(F)F)cc2C[C@@H]1CCCB(O)O ?
< 100 nM

Moving on to CN[C@@]1(C(=O)O)c2cc(CNC(C)=O)ccc2C[C@@H]1CCCB(O)O
100 to 1000 nM

---

# IC50 per record follows
Biological target: recombinant human ARG1 (Homo sapiens)
Test: Arginase coupled enzymatic assay using recombinant human ARG1
Format: biochemical
Conditions: 2 nM ARG1, 0.8 mM L-Arginine, 10 mM sodium phosphate pH 7.4, 0.1 mM MnCl2, 37° C., absorption at 570 nm; read-out: hARG1 potency (IC50)

Check out these entries, answers already filled in.
>>> df
                        structure_as_smiles                          system_tested          result
0  CN[C@@]1(C(=O)O)c2cc(-c3ncccc3C)c(F)cc2C[C@@H]1CCCB(O)O  recombinant human ARG1 (Homo sapiens)  100 to 1000 nM
1  CNCc1cc2c(cc1F)C[C@H](CCCB(O)O)[C@]2(NC)C(=O)O  recombinant human ARG1 (Homo sapiens)        < 100 nM
2  NCCc1cc2c(cc1Cl)C[C@H](CCCB(O)O)[C@]2(N)C(=O)O  recombinant human ARG1 (Homo sapiens)        < 100 nM
3  CN[C@@]1(C(=O)O)c2cc(C3(N)CC3)c(F)cc2C[C@@H]1CCCB(O)O  recombinant human ARG1 (Homo sapiens)        < 100 nM
4  CN[C@@]1(C(=O)O)c2cc(CN3CCC(F)(F)CC3)c(F)cc2C[C@@H]1CCCB(O)O  recombinant human ARG1 (Homo sapiens)  100 to 1000 nM

// next entry
Look up IC50: CN[C@@]1(C(=O)O)c2cc([C@@H](N)C(C)C)c(F)cc2C[C@@H]1CCCB(O)O
< 100 nM

---

Biological target: recombinant human ARG1 (Homo sapiens)
Experiment: Arginase coupled enzymatic assay using recombinant human ARG1
Conditions: 2 nM ARG1, 0.8 mM L-Arginine, 10 mM sodium phosphate pH 7.4, 0.1 mM MnCl2, 37° C., absorption at 570 nm; read-out: hARG1 potency (IC50)
assay-metric: IC50

# get_value(readout='IC50', item= CN[C@@]1(C(=O)O)c2cc(C3(N)CCC3)c(F)cc2C[C@@H]1CCCB(O)O )
< 100 nM

Ok, now N[C@@]1(C(=O)O)c2cccc(Br)c2C[C@@H]1CCCB(O)O
> 1000 nM

---

Biological target: recombinant human ARG1 (Homo sapiens)
Assay: Arginase coupled enzymatic assay using recombinant human ARG1
Assay type: biochemical
Settings: 2 nM ARG1, 0.8 mM L-Arginine, 10 mM sodium phosphate pH 7.4, 0.1 mM MnCl2, 37° C., absorption at 570 nm; read-out: hARG1 potency (IC50)
assay-metric: IC50

>>> print(df.to_string())
                        structure_as_smiles    result
0  CN[C@@]1(C(=O)O)c2cc(C3(CN)CCC3)c(F)cc2C[C@@H]1CCCB(O)O  < 100 nM

Kindly review the next compound as well.
Which IC50 reading was recorded for the compound CN[C@@]1(C(=O)O)c2cc(CN3CCCCC3)c(F)cc2C[C@@H]1CCCB(O)O ?
< 100 nM

---

Target: recombinant human ARG1 (Homo sapiens)
Assay: Arginase coupled enzymatic assay using recombinant human ARG1
Details: 2 nM ARG1, 0.8 mM L-Arginine, 10 mM sodium phosphate pH 7.4, 0.1 mM MnCl2, 37° C., absorption at 570 nm; read-out: hARG1 potency (IC50)
pIC50: −log10 of the molar value.
assay-metric: pIC50

Worked set:
>>> df
                        structure_as_smiles        result
0  CC[C@](C)(N)c1cc2c(cc1F)C[C@H](CCCB(O)O)[C@]2(NC)C(=O)O        > 7.00
1  CN[C@@]1(C(=O)O)c2ccccc2C[C@@H]1CCCB(O)O  6.00 to 7.00
2  CN[C@@]1(C(=O)O)c2cc(C3(N)CC(C)(C)C3)c(F)cc2C[C@@H]1CCCB(O)O        > 7.00
3  CC[C@H](N)c1cc2c(cc1F)C[C@H](CCCB(O)O)[C@]2(NC)C(=O)O        > 7.00
4  CN[C@@]1(C(=O)O)c2cc(CN3CCC[C@H]3C(=O)O)c(F)cc2C[C@@H]1CCCB(O)O  6.00 to 7.00
5  CCC(N)(CC)c1cc2c(cc1F)C[C@H](CCCB(O)O)[C@]2(NC)C(=O)O        > 7.00

Requested read-out: pIC50. Entry: CN[C@@]1(C(=O)O)c2cc(-c3cccnc3)c(F)cc2C[C@@H]1CCCB(O)O
6.00 to 7.00

Follow-up item: CN[C@@]1(C(=O)O)c2cc([C@H](N)C(C)C)c(Cl)cc2C[C@@H]1CCCB(O)O
> 7.00

Now give it for CN[C@@]1(C(=O)O)c2cc(-c3ccc(CN)cc3)ccc2C[C@@H]1CCCB(O)O too.
> 7.00

Likewise for CN[C@@]1(C(=O)O)c2cc([C@H](N)C(F)(F)F)ccc2C[C@@H]1CCCB(O)O ?
6.00 to 7.00

Queued: NCCc1ccc2c(c1)C[C@H](CCCB(O)O)[C@]2(N)C(=O)O
6.00 to 7.00

---

Target: recombinant human ARG1 (Homo sapiens, UniProt P05089)
Assay: Arginase coupled enzymatic assay using recombinant human ARG1
Format: biochemical
Conditions: 2 nM ARG1, 0.8 mM L-Arginine, 10 mM sodium phosphate pH 7.4, 0.1 mM MnCl2, 37° C., absorption at 570 nm; read-out: hARG1 potency (IC50)
pIC50: −log10 of the molar value.
Entries annotated with measured pIC50

Record excerpt, results attached:
>>> df
                        structure_as_smiles                             system_tested        result
0  CN[C@@]1(C(=O)O)c2cc(-c3ccccc3CN)c(F)cc2C[C@@H]1CCCB(O)O  recombinant human ARG1 (Homo sapiens, UniProt P05089)        > 7.00
1  CN[C@@]1(C(=O)O)c2cc(CN(C)C)c(Cl)cc2C[C@@H]1CCCB(O)O  recombinant human ARG1 (Homo sapiens, UniProt P05089)        > 7.00
2  CN[C@@]1(C(=O)O)c2cc(CO)c(Cl)cc2C[C@@H]1CCCB(O)O  recombinant human ARG1 (Homo sapiens, UniProt P05089)  6.00 to 7.00
3  CN[C@@]1(C(=O)O)c2cc([C@@H](C)N)c(F)cc2C[C@@H]1CCCB(O)O  recombinant human ARG1 (Homo sapiens, UniProt P05089)        > 7.00
4  CN[C@@]1(C(=O)O)c2cc(Cn3ccnc3N)c(Cl)cc2C[C@@H]1CCCB(O)O  recombinant human ARG1 (Homo sapiens, UniProt P05089)        > 7.00

Query: pIC50; subject: CN[C@@]1(C(=O)O)c2cc(-c3ccc(CN)cc3)c(Cl)cc2C[C@@H]1CCCB(O)O
> 7.00

Param item: NCCc1ccc2c(c1)[C@@](N)(C(=O)O)[C@@H](CCCB(O)O)C2
> 7.00

Another molecule: CN[C@@]1(C(=O)O)c2cc(CN3CCCC3(C)C)c(F)cc2C[C@@H]1CCCB(O)O
> 7.00

Item: CN[C@@]1(C(=O)O)c2cc(N)c(Cl)cc2C[C@@H]1CCCB(O)O
6.00 to 7.00

Thanks! And CN[C@@]1(C(=O)O)c2cc(CNCC(F)(F)F)c(F)cc2C[C@@H]1CCCB(O)O ?
6.00 to 7.00

Do the same for CN[C@@]1(C(=O)O)c2cc(C3CCNCC3)c(F)cc2C[C@@H]1CCCB(O)O please
> 7.00

Next up: CN[C@@]1(C(=O)O)c2cc(-c3ccccc3CCN)c(F)cc2C[C@@H]1CCCB(O)O
> 7.00

One more molecule: NCc1cccc2c1C[C@H](CCCB(O)O)[C@]2(N)C(=O)O
6.00 to 7.00

Data origin: patent US12226425B2
